# System: Escherichia coli NCTC 8196
# TEST_DETAILS: Determination of the minimum inhibition concentration (MIC value) in microtitre plates
# Format: cell-based
# Parameters: unit not given here
# CONDITION_DESCRIPTION: CASO broth, 37° C., 48 hours, optical density at 620 nm; MIC = <20% growth vs growth control
Give MIC Escherichia coli for every item shown.

Completed entries (count: 5):
CCCCCC(C)Oc1ccccc1CO (stereo not shown) [(7)]	>120
C[Si](C)(C)COc1ccccc1CO [(4)]	>120
CCCCCCCCOc1c(CO)cccc1OC [(27)]	60
CCCCOc1ccc(OC)cc1CO [(19)]	60
COc1ccc(OCCC[Si](C)(C)C)c(CO)c1 [(16)]	>120

Please state MIC Escherichia coli for every compound in the list that follows.
1. CCCCCC(C)Oc1ccc(OC)cc1CO (stereo not shown) [(23)]
2. CCCCCCCCCCCCOc1ccc(CO)c(OCCCCCCCCCCCC)c1 [(32)]
3. C[Si](C)(COc1cccc(CO)c1)c1ccccc1 [(13)]
4. OCc1ccc(OC2CCCCC2)cc1OC1CCCCC1 [(33)]
5. C=CC[Si](C)(C)COc1ccc(CO)cc1OC[Si](C)(C)CC=C [(29)]

1. 60
2. >120
3. >120
4. >120
5. >120

// input: 3 compounds below; output: MIC Escherichia coli for each
1. CCCCCCCCOc1ccccc1CO [(5)]
2. CCC(CC)Oc1ccccc1CO [(6)]
3. C[Si](C)(C)CCCOc1ccccc1CO [(3)]

>120
>120
>120
